Tested on: DLD-1 KLF5 promoter-luciferase reporter, luminescence
Experiment: KLF5 promoter reporter inhibitors, dose response, luminescence, DLD-1 cells, luciferase reporter (AID 1973)
QUANTITY: IC50

For orientation, consider the following solved cases.
{"SAMPLE SMILES": "COc1ccc(Cl)cc1C(=O)Nc1nc2ccccc2[nH]1", "IC50": "4030 nM"}
{"SAMPLE SMILES": "CC(C)(C)c1ccc(C(=O)O/N=C(\\N)c2ccccc2)cc1", "IC50": "1750 nM"}
{"SAMPLE SMILES": "CC1CCN(Cc2c(C(=O)N/N=C/c3ccccc3O)nnn2-c2nonc2N)CC1", "IC50": "1810 nM"}
{"SAMPLE SMILES": "CCN(CC)S(=O)(=O)c1cc(OC)ccc1N=Nc1ccc(O)c2ncccc12", "IC50": "2030 nM"}
{"SAMPLE SMILES": "Cn1cccc1-c1cc(C(=O)N/N=C/c2cc(Br)ccc2O)[nH]n1", "IC50": "1500 nM"}
{"SAMPLE SMILES": "CC(C)(C)c1ccc(C(=O)O/N=C(\\N)c2ccccn2)cc1", "IC50": "270 nM"}
{"SAMPLE SMILES": "COC(=O)c1ccc(Oc2cc(C)nc(-n3nc(C)cc3C)n2)cc1", "IC50": "520 nM"}
{"SAMPLE SMILES": "Oc1cccc2ccc(Nc3ccccn3)nc12", "IC50": "2450 nM"}

What value of IC50 has been recorded for this entry: c1ccc(-c2ccc(-c3nc(-c4ccccn4)no3)cc2)cc1
360 nM

Entry under review: O=C(O)c1cccc(COc2ccc3c(c2)CCC3)c1 . Reported IC50?
695 nM

# lookup: IC50 of COc1cccc(/C=N/NC(=O)c2cc3c(OC)ccc(OC)c3[nH]2)c1O
2460 nM
